experiment: Ferrous ion
OUTCOME_MEASURE: Metal chelating (Fe^2+) IC50 (µg/mL)

1) O=C(O)CN(CCN(CC(=O)O)CC(=O)O)CC(=O)O | 6.24

[P] Cc1c(C)c2c(c(C)c1O)CCC(C)(C(=O)O)O2 (stereo not shown)
[Q] Cc1c(C)c2c(c(C)c1O)CC[C@@](C)(CCC[C@H](C)CCC[C@H](C)CCCC(C)C)O2
-- ask Please compare: P and Q . Report which one has the smaller Metal chelating (Fe^2+) IC50 value. Please indicate the selected item by its label.
-- reply P
(P: 8.05 µg/mL, Q: 27.72 µg/mL)
